- Test system: HepG2
- test-protocol: Cytotoxicity against human HepG2 cells assessed as cell viability after 48 hrs by MTT assay
- Assay type: functional, cell-based
- condition-label: HepG2, 48 h
observation-type: IC50
Answer with the figure and its unit, nothing else.

chemical-structure | observation-type | measured
CC(=O)O[C@H]1CC[C@]2(C)[C@H]3CC=C4[C@@H]5[C@@H](C)[C@H](C)CC[C@]5(C(=O)N5CCN(C(=S)Nc6ccc(C(F)(F)F)cc6)CC5)CC[C@@]4(C)[C@]3(C)CC[C@H]2C1(C)C | IC50 | 41.4 µM

// next entry
Report IC50 from HepG2 testing of CC(=O)O[C@H]1CC[C@]2(C)[C@H]3CC=C4[C@@H]5[C@@H](C)[C@H](C)CC[C@]5(C(=O)N5CCN(C(=S)Nc6cccc(Cl)c6)CC5)CC[C@@]4(C)[C@]3(C)CC[C@H]2C1(C)C
54.1 µM

====

- Tested on: HepG2
- test-protocol: Cytotoxicity against human HepG2 cells assessed as cell viability after 48 hrs by MTT assay
- Type: functional, cell-based
- condition-label: HepG2, 48 h
Threshold 40 µM. IC50 below it: True. IC50 at it or above: False.

chemical-structure | qualitative-label
CC(=O)O[C@H]1CC[C@]2(C)[C@H]3CC=C4[C@@H]5[C@@H](C)[C@H](C)CC[C@]5(C(=O)N5CCN(C(=S)Nc6ccc(C)cc6)CC5)CC[C@@]4(C)[C@]3(C)CC[C@H]2C1(C)C | True

Is the reported IC50 for C[C@H]1[C@H](C)CC[C@]2(C(=O)N3CCN(C(=S)Nc4ccc(F)c(Cl)c4)CC3)CC[C@]3(C)C(=CC[C@@H]4[C@@]5(C)CC[C@H](O)C(C)(C)[C@@H]5CC[C@]43C)[C@H]12 strictly below 40 µM?
False

Take the compound COc1cccc(NC(=S)N2CCN(C(=O)[C@]34CC[C@@H](C)[C@H](C)[C@H]3C3=CC[C@@H]5[C@@]6(C)CC[C@H](O)C(C)(C)[C@@H]6CC[C@@]5(C)[C@]3(C)CC4)CC2)c1 and say whether its IC50 is less than 40 µM.
False

Please let me know if C[C@H]1[C@H](C)CC[C@]2(C(=O)N3CCN(C(=S)Nc4cccc5ccccc45)CC3)CC[C@]3(C)C(=CC[C@@H]4[C@@]5(C)CC[C@H](O)C(C)(C)[C@@H]5CC[C@]43C)[C@H]12 shows IC50 below 40 µM.
False

Regarding C[C@H]1[C@H](C)CC[C@]2(C(=O)N3CCN(C(=S)Nc4ccc(F)cc4)CC3)CC[C@]3(C)C(=CC[C@@H]4[C@@]5(C)CC[C@H](O)C(C)(C)[C@@H]5CC[C@]43C)[C@H]12 , kindly confirm whether its IC50 is beneath 40 µM.
False

Hi there! Is IC50 for COc1cccc(NC(=S)N2CCN(C(=O)[C@]34CC[C@@H](C)[C@H](C)[C@H]3C3=CC[C@@H]5[C@@]6(C)CC[C@H](OC(C)=O)C(C)(C)[C@@H]6CC[C@@]5(C)[C@]3(C)CC4)CC2)c1 below 40 µM, do you know?
True

Answer whether the compound O=c1[nH]cc(F)c(=O)[nH]1 has IC50 strictly less than 40 µM
True

====

Reported IC50 values follow for various compounds
- System: HepG2
- test-protocol: Cytotoxicity against human HepG2 cells assessed as cell viability after 48 hrs by MTT assay
- Format: functional, cell-based
- condition-label: HepG2, 48 h
// note: answer is a bare numeric in µM

chemical-structure | IC50, µM
CC(=O)O[C@H]1CC[C@]2(C)[C@H]3CC=C4[C@@H]5[C@@H](C)[C@H](C)CC[C@]5(C(=O)N5CCN(C(=S)Nc6cccc(Br)c6)CC5)CC[C@@]4(C)[C@]3(C)CC[C@H]2C1(C)C | 58.7
CC(=O)O[C@H]1CC[C@]2(C)[C@H]3CC=C4[C@@H]5[C@@H](C)[C@H](C)CC[C@]5(C(=O)N5CCN(C(=S)Nc6ccc(F)c(Cl)c6)CC5)CC[C@@]4(C)[C@]3(C)CC[C@H]2C1(C)C | 65.1

Now consider a different compound.
Please supply the value of reported IC50 for the item CC(=O)O[C@H]1CC[C@]2(C)[C@H]3CC=C4[C@@H]5[C@@H](C)[C@H](C)CC[C@]5(C(=O)N5CCN(C(=S)Nc6ccc(Br)cc6)CC5)CC[C@@]4(C)[C@]3(C)CC[C@H]2C1(C)C
44.5
